# Tested on: TK-10 renal
# experiment.summary: NCI tumour cell line growth inhibition, 48 h
# TGI listing for each entry below
result.type: TGI

N#Cc1cc2cc3c4c(c2oc1=O)CCCN4CCC3 | > 100 µM
CC(C)C(/C=C/c1ccccc1)=N\NC(=O)N/N=C(/C=C/c1ccccc1)C(C)C | > 100 µM
COc1cc(C/C=C/c2ccccc2)c(OC)cc1O | 38.6 µM
Oc1[nH]c2ccccc2c1N=NC(=S)N1CCCCCC1 | 7.86 µM
C=CCN1CC2CN=NC2(C#N)C1 (stereo unspecified) | > 100 µM
CN(C)c1nc(N(C)C)nc(N(C)CN(C)c2nc(N(C)C)nc(N(C)C)n2)n1 | > 100 µM
O=C1CC(c2ccccc2)Cc2nc3ccc(Cl)cc3cc21 (stereo unspecified) | > 100 µM
N/C(=N\Nc1nc2cc([N+](=O)[O-])ccc2o1)c1ccccn1 | 5.51 µM
Cc1cc(-c2ccccc2)c(C)n1Cc1ccc(Cl)cc1 | 65.4 µM
COC(=O)C1CC2(c3ccc(C)cc3)C(c3ccc(C)cc3)=C(c3ccc(C)cc3)C1(c1ccc(C)cc1)S2=O (stereo unspecified) | > 100 µM
C/C1=C\CC[C@@](C)(O)[C@H]2C[C@H](CC/C(C)=C/CC1)C1(CC1)C(=O)O2 | > 100 µM
CN(N)C(=O)NCCCl | > 100 µM
Nc1c(C(=O)Nc2cccc3ccccc23)sc2nc3c(cc12)CCCC3 | > 100 µM
COc1ccc(N2CCN(CC(=O)N3CCN(c4nnc(-c5ccccc5)c(-c5ccccc5)n4)CC3)CC2)cc1 | > 100 µM
O=C1C2C(C(=O)[N]1[Hg][c]1ccccc1)C1(Cl)C(Cl)=C(Cl)C2(Cl)C1(Cl)Cl (stereo unspecified) | 2.86 µM
COc1cc(NCC(C#N)C#N)ccc1N=Nc1ccc([N+](=O)[O-])cc1 | > 100 µM
O=C1NC(=O)c2c1c1c3ccccc3ccc1c1[nH]c3ccc(Br)cc3c21 | > 100 µM
COc1cc(N(C)C)ccc1/C=c1/c2ccccc2n2c1cc(-c1ccccc1)[n+]2C | 1.83 µM
CC(C)[C@@H](C(=O)O[C@@H]1/C=C/C(=O)O[C@@H](C)CCC/C=C/[C@@H]2C[C@H](O)C[C@H]21)[N+](C)(C)C | > 100 µM
COc1ccc(-c2cc(-c3ccccc3)c(C#N)c(=O)[nH]2)cc1 | > 100 µM
CCOC(=O)c1c(-c2[nH]c(C(=O)OCc3ccccc3)c(C)c2C(=O)OCC)[nH]c(C(=O)OCc2ccccc2)c1C | > 100 µM
